The measurements presented in this section are drawn from the supplement of paper PMC6757056.

B1: library; a variant is named by its letters at N, in order (parent)
chain: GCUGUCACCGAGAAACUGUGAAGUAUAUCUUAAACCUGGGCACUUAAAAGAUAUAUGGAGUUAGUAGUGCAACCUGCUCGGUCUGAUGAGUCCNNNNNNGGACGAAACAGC

Variants of: B1
Assay: normalized RNA/DNA level without ligand (relative to sTRSVctl = 100) (log10 (% of sTRSVctl)); HEK293T; ligand: cyclic di-GMP (c-di-GMP-II aptamer); higher = less ribozyme self-cleavage, higher mRNA level
Conditions: reporter: mCherry (pCS4076), ligand present: no
Answer each item with its documented normalized RNA/DNA level without ligand (log10).
Numbers only.

[
  {
    "mutationKey": "GGAAAC",
    "valueMeasured": 1.74
  },
  {
    "mutationKey": "UACGGG",
    "valueMeasured": 1.62
  },
  {
    "mutationKey": "CAACAA",
    "valueMeasured": 1.37
  }
]

Record normalized RNA/DNA level without ligand (log10) per entry; entries follow.
1. ACCGCC
2. UGCCUG
3. CGGGAC
4. UCAGCG
5. AAUAUG
6. GUGACG
7. UAAACG
8. CACCAC

Reply:
1. 1.74
2. 1.78
3. 1.67
4. 1.83
5. 1.61
6. 1.66
7. 1.75
8. 1.67

Record normalized RNA/DNA level without ligand (log10) per entry; entries follow.
1. CACAUA
2. UUUUCG
3. CAUUAC
4. CAGCGG
5. UGCCAU

Reply:
1. 1.26
2. 1.78
3. 1.62
4. 1.78
5. 1.69
